Biological target: Mu-type opioid receptor (Homo sapiens, UniProt P35372)
Sequence (P35372 whole entry): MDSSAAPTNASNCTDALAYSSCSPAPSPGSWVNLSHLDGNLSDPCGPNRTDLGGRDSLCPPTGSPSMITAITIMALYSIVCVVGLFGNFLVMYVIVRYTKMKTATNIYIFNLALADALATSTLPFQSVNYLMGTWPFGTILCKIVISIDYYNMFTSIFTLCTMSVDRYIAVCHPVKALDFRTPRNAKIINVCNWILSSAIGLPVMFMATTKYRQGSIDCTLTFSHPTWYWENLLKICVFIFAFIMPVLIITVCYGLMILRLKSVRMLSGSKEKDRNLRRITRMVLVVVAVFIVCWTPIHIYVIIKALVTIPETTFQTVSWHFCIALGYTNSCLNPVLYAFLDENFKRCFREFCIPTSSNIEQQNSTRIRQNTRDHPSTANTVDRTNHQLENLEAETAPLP
Assay: Antagonist activity at human mu opioid receptor expressed in CHO cells assessed as inhibition of DAMGO-induced [35S]GTPgammaS binding after 60 mins by scintillation counting relative to untreated-control
Format: functional, cell-based

Compound	Imax / %
CC(C)Oc1ccc(-c2ccc(CCNC(=O)c3ccc4c(c3)C3(C)CCN(CC5CC5)C(C4)C3C)cc2)cc1 (racemic)	72
CC1C2Cc3ccc(C(=O)NCCc4ccc(-c5ccccc5O)cc4)cc3C1(C)CCN2CC1CC1 (racemic)	67
COc1ccc(-c2ccc(CCNC(=O)c3ccc4c(c3)C3(C)CCN(CC5CC5)C(C4)C3C)cc2)cc1C (racemic)	81
COc1ccc(-c2ccc(CCNC(=O)c3ccc4c(c3)C3(C)CCN(CC5CC5)C(C4)C3C)cc2)cc1OC (racemic)	70
COc1ccc2cc(CCNC(=O)c3ccc4c(c3)C3(C)CCN(CC5CC5)C(C4)C3C)ccc2c1 (racemic)	76
C[C@H]1[C@H]2Cc3ccc(C(=O)NCCc4ccc(-c5ccc(O)cc5)cc4)cc3[C@]1(C)CCN2CC1CC1	62

###

pKi: −log10 of the molar value.
Mu-type opioid receptor (Homo sapiens) measurements of pKi, listed per entry.

Molecule	Experimental target	pKi
COc1ccc(-c2ccc(CCNC(=O)c3ccc4c(c3)C3(C)CCN(CC5CC5)C(C4)C3C)cc2)cc1OC (racemic)	Mu-type opioid receptor (Homo sapiens)	11.15
COc1ccc(-c2ccc(CCNC(=O)c3ccc4c(c3)C3(C)CCN(CC5CC5)C(C4)C3C)cc2)cc1 (racemic)	Mu-type opioid receptor (Homo sapiens)	10.08
CC1C2Cc3ccc(C(=O)NCCc4ccc(-c5ccc(OC(F)(F)F)cc5)cc4)cc3C1(C)CCN2CC1CC1 (racemic)	Mu-type opioid receptor (Homo sapiens)	8.74
CC1C2Cc3ccc(C(=O)NCCc4ccc(-c5ccccc5O)cc4)cc3C1(C)CCN2CC1CC1 (racemic)	Mu-type opioid receptor (Homo sapiens)	11.25
COc1ccccc1-c1ccc(CCNC(=O)c2ccc3c(c2)C2(C)CCN(CC4CC4)C(C3)C2C)cc1 (racemic)	Mu-type opioid receptor (Homo sapiens)	9.92
COc1ccc2cc(CCNC(=O)c3ccc4c(c3)C3(C)CCN(CC5CC5)C(C4)C3C)ccc2c1 (racemic)	Mu-type opioid receptor (Homo sapiens)	10.19
CC1C2Cc3ccc(C(=O)NCCc4ccc5ccccc5c4)cc3C1(C)CCN2CC1CC1 (racemic)	Mu-type opioid receptor (Homo sapiens)	9.74
CC1C2Cc3ccc(C(=O)NCCc4ccc(-c5ccc(OC(F)F)cc5)cc4)cc3C1(C)CCN2CC1CC1 (racemic)	Mu-type opioid receptor (Homo sapiens)	9.52
CC1C2Cc3ccc(C(=O)NCCc4ccc(-c5cccc(O)c5)cc4)cc3C1(C)CCN2CC1CC1 (racemic)	Mu-type opioid receptor (Homo sapiens)	10.68

###

Biological target: Kappa-type opioid receptor (Homo sapiens, UniProt P41145)
Sequence (P41145 whole entry): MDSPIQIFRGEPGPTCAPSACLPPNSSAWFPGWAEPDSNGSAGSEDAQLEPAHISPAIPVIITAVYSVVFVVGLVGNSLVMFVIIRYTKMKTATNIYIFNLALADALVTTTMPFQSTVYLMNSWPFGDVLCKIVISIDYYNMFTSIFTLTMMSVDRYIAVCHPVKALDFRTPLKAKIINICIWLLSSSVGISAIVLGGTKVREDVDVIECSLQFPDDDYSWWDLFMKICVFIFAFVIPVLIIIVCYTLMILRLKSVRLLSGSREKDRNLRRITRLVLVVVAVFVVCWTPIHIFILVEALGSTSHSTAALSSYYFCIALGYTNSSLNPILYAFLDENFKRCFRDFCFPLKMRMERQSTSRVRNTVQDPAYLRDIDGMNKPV
pKi: −log10 of the molar value.
Each entry below carries its reported pKi.
Test readout: pKi

Compound	Test readout	Recorded value
CC1C2Cc3ccc(C(=O)NCCc4ccc(-c5ccccc5O)cc4)cc3C1(C)CCN2CC1CC1 (racemic)	pKi	8.68
CC1C2Cc3ccc(C(=O)NCCc4ccc5ccccc5c4)cc3C1(C)CCN2CC1CC1 (racemic)	pKi	9.70
COc1ccccc1-c1ccc(CCNC(=O)c2ccc3c(c2)C2(C)CCN(CC4CC4)C(C3)C2C)cc1 (racemic)	pKi	9.42
CC1C2Cc3ccc(C(=O)NCCc4ccc(-c5cccc(O)c5)cc4)cc3C1(C)CCN2CC1CC1 (racemic)	pKi	8.89
